Measured hAPJ Ca^2+ Flux EC50 accompanies every entry in the list below.
# target-desc: T1, APJ receptor (human, UniProt P35414 1-380)
# T1 sequence (looked up): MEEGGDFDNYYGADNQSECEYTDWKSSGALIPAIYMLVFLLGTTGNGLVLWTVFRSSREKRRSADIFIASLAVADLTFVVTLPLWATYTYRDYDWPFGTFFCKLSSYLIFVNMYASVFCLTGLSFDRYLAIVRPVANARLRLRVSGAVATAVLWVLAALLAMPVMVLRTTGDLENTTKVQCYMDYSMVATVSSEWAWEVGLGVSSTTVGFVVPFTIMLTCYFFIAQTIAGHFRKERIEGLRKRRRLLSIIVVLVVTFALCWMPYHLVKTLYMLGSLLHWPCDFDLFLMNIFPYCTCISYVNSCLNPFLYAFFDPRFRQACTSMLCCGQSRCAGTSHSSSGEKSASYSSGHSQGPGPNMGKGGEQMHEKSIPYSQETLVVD
# assay-protocol: cell-based or functional assay
[ ]: non-standard residue; d: D form. pGlu = O=C1CC[C@@H](C(=O)O)N1; dNle = CCCC[C@@H](N)C(=O)O; dNva = CCC[C@@H](N)C(=O)O; Aib = CC(C)(N)C(=O)O

binder	scale-unit	hAPJ Ca^2+ Flux EC50
[pGlu]RPRLS[dH]KGP[dNle][dA][dF]-OH (SMILES CCCC[C@@H](NC(=O)[C@@H]1CCCN1C(=O)CNC(=O)[C@H](CCCCN)NC(=O)[C@@H](Cc1c[nH]cn1)NC(=O)[C@H](CO)NC(=O)[C@H](CC(C)C)NC(=O)[C@H](CCCNC(=N)N)NC(=O)[C@@H]1CCCN1C(=O)[C@H](CCCNC(=N)N)NC(=O)[C@@H]1CCC(=O)N1)C(=O)N[C@H](C)C(=O)N[C@H](Cc1ccccc1)C(=O)O) [pE-R-P-R-L-S-h-K-G-P-nle-a-f-OH]	nM	6.8
[pGlu]RPRL[dA]HKGP[dNle][dA][dD]-OH (SMILES CCCC[C@@H](NC(=O)[C@@H]1CCCN1C(=O)CNC(=O)[C@H](CCCCN)NC(=O)[C@H](Cc1c[nH]cn1)NC(=O)[C@@H](C)NC(=O)[C@H](CC(C)C)NC(=O)[C@H](CCCNC(=N)N)NC(=O)[C@@H]1CCCN1C(=O)[C@H](CCCNC(=N)N)NC(=O)[C@@H]1CCC(=O)N1)C(=O)N[C@H](C)C(=O)N[C@H](CC(=O)O)C(=O)O) [pE-R-P-R-L-a-H-K-G-P-nle-a-d-OH]	nM	86.8
[pGlu]RPRL[dA]HKGP[dNle][dNva][dF]-OH (SMILES CCCC[C@@H](NC(=O)[C@@H]1CCCN1C(=O)CNC(=O)[C@H](CCCCN)NC(=O)[C@H](Cc1c[nH]cn1)NC(=O)[C@@H](C)NC(=O)[C@H](CC(C)C)NC(=O)[C@H](CCCNC(=N)N)NC(=O)[C@@H]1CCCN1C(=O)[C@H](CCCNC(=N)N)NC(=O)[C@@H]1CCC(=O)N1)C(=O)N[C@H](CCC)C(=O)N[C@H](Cc1ccccc1)C(=O)O) [pE-R-P-R-L-a-H-K-G-P-nle-nva-f-OH]	nM	0.9
[pGlu]RPRL[dNva]HKGP[dNle][dA][dF]-OH (SMILES CCCC[C@@H](NC(=O)[C@@H]1CCCN1C(=O)CNC(=O)[C@H](CCCCN)NC(=O)[C@H](Cc1c[nH]cn1)NC(=O)[C@@H](CCC)NC(=O)[C@H](CC(C)C)NC(=O)[C@H](CCCNC(=N)N)NC(=O)[C@@H]1CCCN1C(=O)[C@H](CCCNC(=N)N)NC(=O)[C@@H]1CCC(=O)N1)C(=O)N[C@H](C)C(=O)N[C@H](Cc1ccccc1)C(=O)O) [pE-R-P-R-L-nva-H-K-G-P-nle-a-f-OH]	nM	19.5
[pGlu]RPRLS[Aib]KGP[dNle][dA][dF]-OH (SMILES CCCC[C@@H](NC(=O)[C@@H]1CCCN1C(=O)CNC(=O)[C@H](CCCCN)NC(=O)C(C)(C)NC(=O)[C@H](CO)NC(=O)[C@H](CC(C)C)NC(=O)[C@H](CCCNC(=N)N)NC(=O)[C@@H]1CCCN1C(=O)[C@H](CCCNC(=N)N)NC(=O)[C@@H]1CCC(=O)N1)C(=O)N[C@H](C)C(=O)N[C@H](Cc1ccccc1)C(=O)O) [pE-R-P-R-L-S-Aib-K-G-P-nle-a-f-OH]	nM	2
